Origin of measurements: paper PMC7321149

- Tested on: L. donovani
- Protocol notes: Leishmania high content assay, intracellular amastigotes in PMA-differentiated THP-1 macrophages
- Assay type: cell-based, Leishmania donovani (MHOM/IN/1980/DD8)
- Cond: THP-1, confirmatory dose-response, mean of two independent experiments, pEC50 = -log EC50 (M), read-out: pEC50 M L. d (converted)
Assay endpoint: EC50 (M)
One number for each entry, in M.

Molecule	Tested system	Observed value
OCCN1CCN(CCC=C2c3ccccc3Sc3ccc(C(F)(F)F)cc32)CC1 [Flupenthixol]	L. donovani	3.47e-05

Quick one: give me EC50 for each item below, same order please.
1. Fc1ccc([C@@H]2CCNC[C@H]2COc2ccc3c(c2)OCO3)cc1 [Paroxetine]
2. c1cc(CN2CCCCC2)cc(OCCCNc2nc3ccccc3s2)c1 [SKF 95282]
3. CN1CCN(CCCN2c3ccccc3Sc3ccc(C(F)(F)F)cc32)CC1 [Trifluoperazine]
4. CNCCCC1c2ccccc2C=Cc2ccccc21 [Protriptyline]
5. CC(CN(C)C)CN1c2ccccc2CCc2ccccc21 (stereo not drawn) [Trimipramine]

Marked response:
["3.16e-05", "4.9e-05", "3.8e-05", "2.95e-05", "4.07e-05"]

====

- System: L. donovani
- Protocol notes: Leishmania high content assay, intracellular amastigotes in PMA-differentiated THP-1 macrophages
- Type: cell-based, Leishmania donovani (MHOM/IN/1980/DD8)
- Cond: THP-1, confirmatory dose-response, mean of two independent experiments, pEC50 = -log EC50 (M), read-out: pEC50 M L. d (converted)
Assay endpoint: EC50 (M)
Numbers only, in M.

// known answers, use as guide
Compound	Output unit	Observed value
CN1CCN(C2Cc3ccccc3Sc3ccc(Cl)cc32)CC1 (stereo not drawn) [Clorotepine]	M	4.37e-05
CCN(CC)C(C)CN1c2ccccc2Sc2ccccc21 (stereo not drawn) [Ethopropazine]	M	3.16e-05

Exam item: Need EC50, item OCCN1CCN(CCCN2c3ccccc3Sc3ccc(Cl)cc32)CC1 [Perphenazine]
Marked response: 2.75e-05
